The entries below are paired with their reported Km.
# measured_on: Oat2 (Solute carrier family 22 member 7) (Rattus norvegicus, UniProt Q5RLM2)
# procedure_text: TP_TRANSPORTER: uptake in Oat2-expressing LLC PK1 cells
# Type: functional, cell-based
# applied_conditions: pig
Respond with the bare value in µM.

mol: Cc1cn([C@H]2C[C@H](N=[N+]=[N-])[C@@H](CO)O2)c(=O)[nH]c1=O
Km (µM): 26

Attention now shifts to the item below.
# input compound: `COc1ccc2c(c1)c(CC(=O)O)c(C)n2C(=O)c1ccc(Cl)cc1` ; wanted: its Km
0.366

====

The entries below are paired with their reported Ki.
# measured_on: Solute carrier family 22 member 7 (Rattus norvegicus)
# Sequence (Q5RLM2 whole entry): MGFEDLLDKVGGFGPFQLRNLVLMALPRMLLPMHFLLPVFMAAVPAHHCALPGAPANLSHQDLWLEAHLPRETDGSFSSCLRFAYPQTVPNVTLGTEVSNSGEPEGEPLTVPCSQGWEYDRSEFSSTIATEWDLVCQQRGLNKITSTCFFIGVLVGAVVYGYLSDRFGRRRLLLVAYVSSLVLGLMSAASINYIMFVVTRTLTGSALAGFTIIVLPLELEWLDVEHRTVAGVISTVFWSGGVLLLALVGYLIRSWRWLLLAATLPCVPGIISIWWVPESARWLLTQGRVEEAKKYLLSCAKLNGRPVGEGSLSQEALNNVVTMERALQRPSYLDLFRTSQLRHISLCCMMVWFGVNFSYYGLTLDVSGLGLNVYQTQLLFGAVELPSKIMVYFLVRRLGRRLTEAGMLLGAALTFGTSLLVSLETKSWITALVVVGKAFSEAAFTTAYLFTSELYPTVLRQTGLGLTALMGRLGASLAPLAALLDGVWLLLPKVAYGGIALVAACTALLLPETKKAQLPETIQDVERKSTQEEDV
# procedure_text: TP_TRANSPORTER: inhibition of Salicylate uptake in Oat2-expressing LLC PK1 cells
Respond with the bare value in nM.

compound: CC(C(=O)O)c1cccc(C(=O)c2ccccc2)c1 (stereo not drawn)
reading: 1840

# input compound: `CC1(C)C(/C=C/C=C/C=C/C=C2\N(CCCCS(=O)(=O)O)c3ccc4ccccc4c3C2(C)C)=[N+](CCCCS(=O)(=O)[O-])c2ccc3ccccc3c21` ; wanted: its Ki
1150

# input compound: COc1ccc(Cl)cc1C(=O)NCCc1ccc(S(=O)(=O)NC(=O)NC2CCCCC2)cc1 [GLYBURIDE] ; wanted: its Ki
12300
